experiment: Plasma cholesterol and triglycerides in C57BL/6 mice (Olympus AU400e); assay type: in vivo, mouse; settings: Week 6, 50 mg/kg/week
Oligonucleotides are written 5' to 3', each unit as a sugar letter and its base; * is a phosphorothioate linkage, no mark a phosphodiester; rarer units and linkages stand in square brackets, end groups in braces. Plain capitals give the bases only. e = 2'-O-(2-methoxyethyl) (MOE); [5mC] = 5-methylcytosine; d = 2'-deoxy (DNA)
propertyName: HDL cholesterol levels (% change over baseline)

Would you be so kind as to report HDL cholesterol levels (% change over baseline) for each listed record?
1. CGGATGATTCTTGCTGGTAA (antisense e[5mC]*eG*eG*eA*eT*dG*dA*dT*dT*d[5mC]*dT*dT*dG*d[5mC]*dT*eG*eG*eT*eA*eA) [ISIS 447114]
2. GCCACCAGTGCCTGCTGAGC (antisense eG*e[5mC]*e[5mC]*eA*e[5mC]*d[5mC]*dA*dG*dT*dG*d[5mC]*d[5mC]*dT*dG*d[5mC]*eT*eG*eA*eG*e[5mC]) [ISIS 447143]
3. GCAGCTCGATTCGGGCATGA (antisense eG*e[5mC]*eA*eG*e[5mC]*dT*d[5mC]*dG*dA*dT*dT*d[5mC]*dG*dG*dG*e[5mC]*eA*eT*eG*eA) [ISIS 447118]
4. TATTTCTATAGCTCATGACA (antisense eT*eA*eT*eT*eT*d[5mC]*dT*dA*dT*dA*dG*d[5mC]*dT*d[5mC]*dA*eT*eG*eA*e[5mC]*eA) [ISIS 447144]

Reply:
1: +130%; 2: +104%; 3: +89%; 4: +88%

---

Field: % inhibition of murine TTC39B mRNA. Provide a value for each of the sequences that follow.
tested on: murine TTC39B mRNA; experiment: Antisense inhibition of murine TTC39B in mouse primary hepatocytes, single dose; type: cell-based; conditions: 100 nM, cytofectin, ~24 h, vs untreated control; gapmers targeted to SEQ ID NO: 10-14
Oligonucleotides are written 5' to 3', each unit as a sugar letter and its base; * is a phosphorothioate linkage, no mark a phosphodiester; rarer units and linkages stand in square brackets, end groups in braces. Plain capitals give the bases only. e = 2'-O-(2-methoxyethyl) (MOE); [5mC] = 5-methylcytosine; d = 2'-deoxy (DNA)
Numbers only, in %.

Hi, could you look up % inhibition of murine TTC39B mRNA for each item in my list?
1. GCTTACCTTGGACCATTTAC (eG*e[5mC]*eT*eT*eA*d[5mC]*d[5mC]*dT*dT*dG*dG*dA*d[5mC]*d[5mC]*dA*eT*eT*eT*eA*e[5mC]; antisense) [ISIS 447173]
2. TCCAGATCATTATGTTTACA (eT*e[5mC]*e[5mC]*eA*eG*dA*dT*d[5mC]*dA*dT*dT*dA*dT*dG*dT*eT*eT*eA*e[5mC]*eA; antisense) [ISIS 447174]
3. GAATTATTTATTCTCACACC (antisense eG*eA*eA*eT*eT*dA*dT*dT*dT*dA*dT*dT*d[5mC]*dT*d[5mC]*eA*e[5mC]*eA*e[5mC]*e[5mC]) [ISIS 447167]
4. GCCAGCCAGGGCAGGCACTC (antisense eG*e[5mC]*e[5mC]*eA*eG*d[5mC]*d[5mC]*dA*dG*dG*dG*d[5mC]*dA*dG*dG*e[5mC]*eA*e[5mC]*eT*e[5mC]) [ISIS 447163]
5. CTGATGAACTTGATTTAGCC (antisense e[5mC]*eT*eG*eA*eT*dG*dA*dA*d[5mC]*dT*dT*dG*dA*dT*dT*eT*eA*eG*e[5mC]*e[5mC]) [ISIS 447166]
6. AGCCTTGTTCACTGGGAAGA (antisense eA*eG*e[5mC]*e[5mC]*eT*dT*dG*dT*dT*d[5mC]*dA*d[5mC]*dT*dG*dG*eG*eA*eA*eG*eA) [ISIS 447162]

Reply:
1. 59
2. 50
3. 56
4. 50
5. 0
6. 59
